FYI, the data here is from patent US9920075B2.

Molecular target: myeloperoxidase (MPO) (Homo sapiens)
Sequence (P05164 49-745): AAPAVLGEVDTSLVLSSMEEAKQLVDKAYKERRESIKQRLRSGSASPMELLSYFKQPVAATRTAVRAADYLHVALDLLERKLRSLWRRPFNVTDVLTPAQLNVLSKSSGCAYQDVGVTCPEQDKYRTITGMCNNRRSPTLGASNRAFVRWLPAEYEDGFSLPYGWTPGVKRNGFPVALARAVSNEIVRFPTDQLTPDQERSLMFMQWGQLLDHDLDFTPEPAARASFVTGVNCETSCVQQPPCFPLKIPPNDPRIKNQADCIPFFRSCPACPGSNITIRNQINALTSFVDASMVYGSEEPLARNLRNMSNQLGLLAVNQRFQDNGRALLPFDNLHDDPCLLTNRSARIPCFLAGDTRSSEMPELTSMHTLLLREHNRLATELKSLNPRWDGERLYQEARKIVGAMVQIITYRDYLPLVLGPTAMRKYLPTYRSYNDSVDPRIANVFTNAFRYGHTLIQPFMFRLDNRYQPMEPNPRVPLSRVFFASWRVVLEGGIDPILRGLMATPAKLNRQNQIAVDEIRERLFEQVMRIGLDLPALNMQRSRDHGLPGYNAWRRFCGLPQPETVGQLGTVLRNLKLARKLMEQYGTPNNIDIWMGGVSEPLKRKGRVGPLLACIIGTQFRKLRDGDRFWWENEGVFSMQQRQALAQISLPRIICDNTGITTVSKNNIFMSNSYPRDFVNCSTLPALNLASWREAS
Assay: MPO peroxidation assay (Amplex Red assay)
Format: biochemical
Details: MPO peroxidation (Amplex Red), ranges given; read-out: MPO peroxidation assay IC50 values (binned)
Here, each record is paired with measured IC50 data.

COMPOUND STRING	IC50
Nc1cc(OCc2cccc3c2OCCO3)c2nn[nH]c2n1	≤ 60 nM
Cc1nn(-c2ccc(N3CCNCC3)cc2)nc1COc1cc(N)nc2[nH]nnc12	60 to 150 nM
Nc1cc(OCc2cc(-c3ccc(CO)nc3)ncc2F)c2nn[nH]c2n1	60 to 150 nM
Cn1nc(COc2cc(N)nc3[nH]nnc23)cc1-c1ccccc1	≤ 60 nM
Nc1cc(OCc2ncccc2F)c2nn[nH]c2n1	≤ 60 nM
Nc1nc(OCc2cccc3ncccc23)c2nn[nH]c2n1	60 to 150 nM

Provide IC50 value for the following molecule: Nc1cc(OCc2cnn(-c3ccccn3)c2)c2nn[nH]c2n1
60 to 150 nM

Provide IC50 value for the following molecule: Nc1cc(OCC2CCN(c3ncccn3)CC2)c2nn[nH]c2n1
60 to 150 nM

Provide IC50 value for the following molecule: Nc1cc(OCc2nc(-c3ccc(N4CCNCC4)nc3)ccc2F)c2nn[nH]c2n1
≤ 60 nM

###

Biological target: myeloperoxidase (MPO) (Homo sapiens)
Test: MPO chlorination assay (APF assay)
Format: biochemical
Conditions: MPO chlorination, 100 mM KPi pH 7.4, ten minute preincubation; read-out: APF Assay IC50 value
pIC50: −log10 of the molar value.
VALUE TYPE: pIC50

Example results:
COMPOUND	RECORDED VALUE
COc1ccc(-n2nc(C)c(COc3cc(N)nc4[nH]nnc34)n2)cc1	6.77
COc1cc(-c2nc(COc3cc(N)nc4[nH]nnc34)c(C)o2)ccc1Cl	5.82
Cc1oc(-c2ccc(S(C)(=O)=O)cc2)nc1CSc1cc(N)nc2[nH]nnc12	6.33

P = Cc1nn(-c2cccc(F)c2)nc1COc1cc(N)nc2[nH]nnc12
Q = CCn1nc(COc2cc(N)nc3[nH]nnc23)cc1C(F)(F)F
Hello, I am sorting some records. Could you say if P or Q has the smaller pIC50 value? Write down the label attached to your selection.
Q
(Q: 6.89, P: 7.10)

1 = Cn1ncc2c(COc3cc(N)nc4[nH]nnc34)cccc21
2 = Nc1cc(OCC2COc3ccccc3O2)c2nn[nH]c2n1 (stereo not shown)
3 = Nc1cc(OCc2cncn2Cc2ccccc2)c2nn[nH]c2n1
4 = COc1cccc(-n2nc(C)c(COc3cc(N)nc4[nH]nnc34)n2)c1
5 = Nc1cc(OCC2CCN(C3=NC=CCN3)CC2)c2nn[nH]c2n1
Please put the entries in order of rising pIC50. Returns: the labels listed in the requested order.
3, 5, 2, 4, 1

A = CS(=O)(=O)N1CCCCC1COc1cc(N)nc2[nH]nnc12 (stereo not shown)
B = Nc1cc(OCc2cccnc2Cl)c2nn[nH]c2n1
C = Nc1cc(OCc2nn(Cc3ccccc3)c3ccccc23)c2nn[nH]c2n1
D = CCc1nn(-c2ccccc2)nc1COc1cc(N)nc2[nH]nnc12
Put the items in sequence by pIC50, from largest down. Returns: the labels listed in the requested order.
B, C, D, A
(B: 7.30, C: 7.00, D: 6.49, A: 5.96)

###

Target: myeloperoxidase (MPO) (Homo sapiens, UniProt P05164)
Sequence (P05164 49-745): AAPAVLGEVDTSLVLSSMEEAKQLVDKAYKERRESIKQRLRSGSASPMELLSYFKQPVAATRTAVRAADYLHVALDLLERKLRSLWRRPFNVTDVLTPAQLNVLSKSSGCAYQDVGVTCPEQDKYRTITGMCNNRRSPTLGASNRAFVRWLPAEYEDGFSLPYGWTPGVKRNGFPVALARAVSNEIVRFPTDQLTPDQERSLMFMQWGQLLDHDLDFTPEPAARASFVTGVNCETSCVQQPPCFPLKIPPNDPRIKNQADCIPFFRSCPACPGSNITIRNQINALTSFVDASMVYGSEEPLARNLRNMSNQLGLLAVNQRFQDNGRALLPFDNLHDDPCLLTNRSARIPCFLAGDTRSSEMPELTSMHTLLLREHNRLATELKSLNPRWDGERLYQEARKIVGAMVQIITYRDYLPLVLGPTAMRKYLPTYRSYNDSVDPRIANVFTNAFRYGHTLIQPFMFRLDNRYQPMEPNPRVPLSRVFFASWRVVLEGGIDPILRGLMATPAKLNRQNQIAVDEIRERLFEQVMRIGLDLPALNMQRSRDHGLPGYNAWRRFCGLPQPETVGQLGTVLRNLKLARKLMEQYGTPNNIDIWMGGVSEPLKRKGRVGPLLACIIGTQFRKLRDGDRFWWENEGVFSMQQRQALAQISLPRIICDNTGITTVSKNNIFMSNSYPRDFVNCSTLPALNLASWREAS
Assay: MPO peroxidation assay (Amplex Red assay)
Type: biochemical
Conditions: MPO peroxidation (Amplex Red), ranges given; read-out: MPO peroxidation assay IC50 values (binned)
pIC50: −log10 of the molar value.
Here, each record is paired with measured pIC50 data.

MOLECULE	RECORDED VALUE
COCc1nn(-c2ccccc2)nc1COc1cc(N)nc2[nH]nnc12	6.82 to 7.22
Nc1cc(OCc2ccc3c(c2)OCO3)c2nn[nH]c2n1	≥ 7.22
Nc1cc(OCc2ncc(-c3ccc(CO)nc3)cc2F)c2nn[nH]c2n1	6.82 to 7.22

Provide pIC50 value for the following molecule: Nc1cc(OCc2nnc3cccc(Cl)n23)c2nn[nH]c2n1
6.82 to 7.22

Provide pIC50 value for the following molecule: Cc1nn(CC2CCNC2)nc1COc1cc(N)nc2[nH]nnc12 (stereo not shown)
6.00 to 6.82

Provide pIC50 value for the following molecule: Nc1cc(OCc2cc(-c3ccc(N4CCNCC4)nc3)ncc2F)c2nn[nH]c2n1
≥ 7.22

Provide pIC50 value for the following molecule: CN1CCN(c2ccc(-c3cnc(COc4cc(N)nc5[nH]nnc45)c(F)c3)cn2)CC1
≥ 7.22

Provide pIC50 value for the following molecule: Nc1cc(OCc2ccc(C(F)(F)F)o2)c2nn[nH]c2n1
≥ 7.22

###

Target: UniProtKB P05164
Sequence (P05164 49-745): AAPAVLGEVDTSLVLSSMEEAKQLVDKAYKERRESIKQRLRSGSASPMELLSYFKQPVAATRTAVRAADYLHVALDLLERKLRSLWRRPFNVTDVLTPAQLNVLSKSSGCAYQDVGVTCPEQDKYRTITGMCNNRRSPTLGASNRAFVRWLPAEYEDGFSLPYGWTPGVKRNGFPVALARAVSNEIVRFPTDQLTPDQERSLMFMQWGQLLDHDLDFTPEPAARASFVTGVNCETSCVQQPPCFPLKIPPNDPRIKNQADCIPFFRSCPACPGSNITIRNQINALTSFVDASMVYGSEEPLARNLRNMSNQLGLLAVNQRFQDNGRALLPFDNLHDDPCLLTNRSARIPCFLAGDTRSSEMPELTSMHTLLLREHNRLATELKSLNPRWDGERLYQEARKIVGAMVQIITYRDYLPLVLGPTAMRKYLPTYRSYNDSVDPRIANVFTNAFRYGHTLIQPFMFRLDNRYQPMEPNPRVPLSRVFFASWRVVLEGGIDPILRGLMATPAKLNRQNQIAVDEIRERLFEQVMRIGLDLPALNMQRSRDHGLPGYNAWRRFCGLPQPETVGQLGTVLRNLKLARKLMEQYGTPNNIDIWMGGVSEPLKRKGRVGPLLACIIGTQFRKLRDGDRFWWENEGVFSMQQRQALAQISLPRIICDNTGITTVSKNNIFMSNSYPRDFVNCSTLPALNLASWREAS
Test: MPO peroxidation assay (Amplex Red assay)
Format: biochemical
Details: MPO peroxidation (Amplex Red), ranges given; read-out: MPO peroxidation assay IC50 values (binned)
Here, each record is paired with measured IC50 data.

Example results:
COMPOUND STRING	RECORDED VALUE
Nc1nc(OCc2cccnc2)c2nn[nH]c2n1	60 to 150 nM
Cc1nc(-c2ccc(Cl)cc2)sc1COc1cc(N)nc2[nH]nnc12	≤ 60 nM
COc1ccc(-c2cncc(COc3nc(N)nc4[nH]nnc34)c2)cc1	60 to 150 nM
Nc1nc(OCc2ccc3ncccc3c2)c2nn[nH]c2n1	60 to 150 nM

Now for another entry.
Provide IC50 value for the following compound: Nc1cc(OCc2nc(Br)ccc2F)c2nn[nH]c2n1
≤ 60 nM
